B1: C1orf137 (parent)
chain: LPQETNLTLKVCKPQAPQKLDPTL

# Variants of: B1
# Test details: protein stability index of a GFP-peptide fusion (GPS, HEK-293T) (PSI 1-6); higher = more stable;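 further: lentivirally expressed fusions sorted by FACS into six bins by GFP to DsRed ratio, PSI derived from sequencing read proportions per bin multiplied by bin number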
# Conditions: c terminus: a fixed tail appended
So basically every entry gets a class from its protein stability index, ranges being bucket A = under 3, bucket B = from 3 up to 4, bucket C = 4 and over

The examples below pair each entry with its known result.
# Mutant code, Assigned label
data = [
    ("V11L", "bucket B"),
    ("A16D", "bucket C"),
    ("L24K", "bucket C"),
]

For `L9P` , which protein stability index bin applies?
bucket B

Which protein stability index band matches `Q3A` ?
bucket C

Exercise: read the entry `L24C` and state which class it falls under.
bucket C

In plain terms, what class is `Q15C` ?
bucket B

For `D21A` , which protein stability index bin applies?
bucket A

Hey, which category is `V11Y` in, do you know?
bucket B

Place this variant in its band: `L24N`
bucket C

Dear colleague, I would appreciate it if you could identify the bin for `P14G` and reply at your convenience.
bucket C
